Ref: patent US20060135589A1

target: CDK2/CyclinA (Homo sapiens, UniProt P24941)
Construct: purchased Upstate Biotechnology
protocol: Measurement of CDK2 kinase inhibitory activity (IC50), 33P-ATP / histone H1 filter assay
Assay type: biochemical
I'd appreciate it if you could supply inhibition at 50 µM values for the items below.

Record CCOC(=O)N1CCC(NC(=O)c2n[nH]c3ccc([N+](=O)[O-])cc23)CC1 [Example 34] , field inhibition at 50 µM: ≥ 50%

The molecule CS(=O)(=O)c1cccc(NC(=O)c2n[nH]c3ccc(I)cc23)c1 [Example 14] showed inhibition at 50 µM equal to ≥ 50%

Entry under test: O=C(Nc1ccc(S(=O)(=O)N2CCOCC2)cc1)c1n[nH]c2ccccc12 [Example 10] . Its inhibition at 50 µM was ≥ 50%

The measured inhibition at 50 µM associated with CS(=O)(=O)N1CCC(NC(=O)c2n[nH]c3ccccc23)CC1 [Example 69] reads ≥ 50%

Item: O=C(Nc1ccc(-c2c[nH]cn2)cc1)c1n[nH]c2ccccc12 [Example 8] | inhibition at 50 µM: ≥ 50%

Memo: CNS(=O)(=O)Cc1ccc(NC(=O)c2n[nH]c3ccc(Cl)cc23)cc1 [Example 25] , reported inhibition at 50 µM: ≥ 50%

Looking up Cc1ccc2[nH]nc(C(=O)Nc3ccc(F)cc3)c2c1 [Example 72] , I see its inhibition at 50 µM listed as ≥ 50%

Notebook: O=C(Nc1cccc(-c2cnco2)c1)c1n[nH]c2ccccc12 [Example 7] , inhibition at 50 µM read as ≥ 50%

Item: NS(=O)(=O)c1ccc(NC(=O)c2n[nH]c3ccc([N+](=O)[O-])cc23)cc1 [Example 18] | inhibition at 50 µM: ≥ 50%

Reported inhibition at 50 µM for O=C(NC1CCOCC1)c1n[nH]c2ccc(Cl)cc12 [Example 42] was ≥ 50%

inhibition at 50 µM in this record for CNS(=O)(=O)Cc1ccc(NC(=O)c2n[nH]c3ccc(NC(=O)NCCCl)cc23)cc1 [Example 63] : ≥ 50%

The molecule listed as O=C(Nc1ccc(F)cc1)c1n[nH]c2ccc(I)cc12 [Example 58] shows inhibition at 50 µM equal to ≥ 50%

Form field inhibition at 50 µM, entry CNS(=O)(=O)Cc1ccc(NC(=O)c2n[nH]c3ccc(-c4c(C)noc4C)cc23)cc1 [Example 22] : ≥ 50%

# inhibition at 50 µM of CCCCNC(=O)NS(=O)(=O)c1ccc(NC(=O)c2n[nH]c3ccccc23)cc1 [Example 35] = ≥ 50%

Entry O=C(Nc1ccc(S(=O)(=O)Nc2nccs2)cc1)c1n[nH]c2ccccc12 [Example 31] ; inhibition at 50 µM = ≥ 50%

// inhibition at 50 µM lookup, molecule = O=C(Nc1ccccc1)c1n[nH]c2ccc(-c3ccccc3-c3ccccc3)cc12 [Example 85] , result: ≥ 50%

In plain terms, O=C(Nc1cccnc1)c1n[nH]c2ccc(Cl)cc12 [Example 47] has a documented inhibition at 50 µM of ≥ 50%

Record summary for N=C(N)NS(=O)(=O)c1ccc(NC(=O)c2n[nH]c3ccccc23)cc1 [Example 36] : reported inhibition at 50 µM = ≥ 50%

Entry O=C(Nc1ccccc1)c1n[nH]c2ccc(N3CCCS3(=O)=O)cc12 [Example 86] , inhibition at 50 µM reported as ≥ 50%

Per the record, O=C(NC1CCNCC1)c1n[nH]c2ccc(I)cc12 [Example 64] has inhibition at 50 µM of ≥ 50%

The molecule listed as O=C(Nc1ccccc1)c1n[nH]c2ccc([N+](=O)[O-])cc12 [Example 55] has a reported inhibition at 50 µM of ≥ 50%

Memo: O=C(Nc1ccc(F)cc1)c1n[nH]c2cccc(Br)c12 [Example 71] , reported inhibition at 50 µM: ≥ 50%

GET /value?item= O=C(Nc1ccccc1)c1n[nH]c2ccc(Cl)cc12 [Example 49] &field=inhibition at 50 µM returns ≥ 50%

// sample O=C(NCc1ccccc1)c1n[nH]c2ccc(Cl)cc12 [Example 45] , its inhibition at 50 µM was ≥ 50%

Lab note: measured inhibition at 50 µM of CC(=O)NCc1ccc(NC(=O)c2n[nH]c3ccc(I)cc23)cc1 [Example 15] was ≥ 50%

The recorded inhibition at 50 µM for CNS(=O)(=O)Cc1ccc(NC(=O)c2n[nH]c3ccc(I)cc23)cc1 [Example 13] is ≥ 50%

// inhibition at 50 µM value for O=C(Nc1ccccc1)c1n[nH]c2ccccc12 [Example 27] : ≥ 50%

inhibition at 50 µM recorded for this molecule, O=C(Nc1ccc(N2CCOCC2)cc1)c1n[nH]c2ccccc12 [Example 54] , is ≥ 50%

inhibition at 50 µM recorded for this molecule, O=C(Nc1ccccc1)c1n[nH]c2ccc(N3CCOCC3)cc12 [Example 17] , is ≥ 50%

Value of measured inhibition at 50 µM for the entry CNS(=O)(=O)Cc1ccc(NC(=O)c2n[nH]c3ccc(-c4ccco4)cc23)cc1 [Example 23] : ≥ 50%

The recorded inhibition at 50 µM for CS(=O)(=O)c1cccc(NC(=O)c2n[nH]c3ccccc23)c1 [Example 9] is ≥ 50%

Looking up CC(=O)NCc1ccc(NC(=O)c2n[nH]c3ccc(Cl)cc23)cc1 [Example 65] , I found its inhibition at 50 µM recorded as ≥ 50%
